- ASSAY_SUMMARY: Cytotoxicity against human ARPE-19 cells assessed as reduction in nuclei count measured after 10 days for Hoechst 33342 staining based microscopic analysis
- Format: cell-based
- SETTINGS: time 10 day
CC50 at 240 h reference

// below: answered compounds
MOLECULE_SMILES	CC50 at 240 h
O=[N+]([O-])c1cc(F)cc(-c2c3ccc([nH]3)c(-c3cc(F)ccc3[N+](=O)[O-])c3nc(c4ccc([nH]4)c(-c4cc(F)ccc4[N+](=O)[O-])c4ccc2[nH]4)C=C3)c1	> 50 µM
O=[N+]([O-])c1cccc(-c2c3nc(c4ccc([nH]4)c(-c4cccc([N+](=O)[O-])c4)c4ccc([nH]4)c(-c4ccccc4)c4ccc2[nH]4)C=C3)c1	> 50 µM

Kindly consider the entry below.
Which CC50 at 240 h is reported for this compound? O=[N+]([O-])c1cccc(-c2c3nc(c4ccc([nH]4)c(-c4cccc([N+](=O)[O-])c4)c4ccc([nH]4)c(-c4ccc(F)c([N+](=O)[O-])c4)c4ccc2[nH]4)C=C3)c1 > 50 µM

====

pIC50 reference
- Test system: Human betaherpesvirus 5
- ASSAY_SUMMARY: Antiviral activity against Human cytomegalovirus infected in MRC5 cells measured after 6 days by fluorescence based microscopic analysis
- Format: functional, cell-based
- SETTINGS: Human betaherpesvirus 5, MRC5, 144 h; read-out: IC50
Value format note: pIC50 is -log10 of concentration (mol/L); just state the number.

MOLECULE_SMILES	ASSAYED_TARGET	MEASURED_PROPERTY	RESULT_NUMBER
O=[N+]([O-])c1ccc(F)cc1-c1c2nc(c3ccc([nH]3)c(-c3cc(F)ccc3[N+](=O)[O-])c3ccc([nH]3)c(-c3cc(F)ccc3[N+](=O)[O-])c3ccc1[nH]3)C=C2	Human betaherpesvirus 5	pIC50	5.15

Lookup: pIC50 / Human betaherpesvirus 5 / O=[N+]([O-])c1ccc(-c2c3nc(c4ccc([nH]4)c(-c4ccc([N+](=O)[O-])cc4F)c4ccc([nH]4)c(-c4ccc([N+](=O)[O-])cc4F)c4ccc2[nH]4)C=C3)c(F)c1 6.15

Try this molecule too: O=[N+]([O-])c1ccc(F)c(-c2c3nc(c4ccc([nH]4)c(-c4c(F)ccc([N+](=O)[O-])c4F)c4ccc([nH]4)c(-c4c(F)ccc([N+](=O)[O-])c4F)c4ccc2[nH]4)C=C3)c1F 6.07
